Data provenance is PubChem BioAssay (NCI).

- System: M14 melanoma
- assay.details: NCI tumour cell line growth inhibition, 48 h
Below, each entry is listed alongside its reported TGI.

Solved entries (count: 3):
molecule=COc1ccc2nc3cc(Cl)ccc3c(NCCCN(Cc3cc(OC)c(OC)c(OC)c3)Cc3cc(OC)c(OC)c(OC)c3)c2c1 endpoint_label=TGI reported_result="3.45 µM"
molecule=Cc1cccc(NC(=O)CCc2ccc(N3C(N)=NC(N)=NC3(C)C)cc2)c1 endpoint_label=TGI reported_result="> 100 µM"
molecule=CCOC(=O)c1c2c3c(cccc3[nH]c1=O)Sc1ncccc1-2 endpoint_label=TGI reported_result="> 100 µM"

Give the measured TGI of Cc1ccccc1C(=O)c1c(O)c2c(c(O)c1Br)CCCC2 . 29.1 µM

Give the measured TGI of COc1ccc(C2=CC(c3ccccc3)n3nnnc3N2)cc1 (stereo unspecified) . > 100 µM

Give the measured TGI of CN(C)c1ccc2c(=O)c3ccccc3oc2n1 . > 100 µM

Give the measured TGI of O=C(O)C/C(=C\c1ccco1)C(=O)O . > 100 µM

Give the measured TGI of CC(C)/C=C1\CCC(CN2CCCC2)C1=O (stereo unspecified) . 24.2 µM
